- TESTED_SYSTEM: S1P3 receptor (Homo sapiens, UniProt Q99500)
- Sequence (Q99500 whole entry): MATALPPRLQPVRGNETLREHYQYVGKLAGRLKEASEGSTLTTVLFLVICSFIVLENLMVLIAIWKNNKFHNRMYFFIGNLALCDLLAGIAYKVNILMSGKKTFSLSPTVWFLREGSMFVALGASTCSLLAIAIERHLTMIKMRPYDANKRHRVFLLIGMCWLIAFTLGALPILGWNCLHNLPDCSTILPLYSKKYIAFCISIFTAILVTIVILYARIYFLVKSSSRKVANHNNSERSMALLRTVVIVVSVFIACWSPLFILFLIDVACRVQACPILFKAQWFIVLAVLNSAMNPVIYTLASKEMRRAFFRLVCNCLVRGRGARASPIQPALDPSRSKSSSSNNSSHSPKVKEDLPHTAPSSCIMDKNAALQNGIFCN
- PROCEDURE_TEXT: 35S-GTPγS binding, membranes from CHO cells expressing S1P3
- MEASUREMENT_SETUP: CHO cell membranes expressing S1P3
Examples of compounds with documented EC50 follow.

INSERT INTO assay_data (compound, attribute_measured, result) VALUES
  ('COCCc1c(-c2nc(-c3cccnc3)no2)nnn1-c1ccccc1F [Example 46]', 'EC50', '> 20 µM'),
  ('CCc1c(-c2nc(-c3ccccc3)no2)nnn1-c1ccccc1F [Example 5]', 'EC50', '> 30 µM'),
  ('COCc1c(-c2nc(-c3cccc(S(C)(=O)=O)c3)no2)nnn1-c1ccccc1F [Example 68]', 'EC50', '> 20 µM');

Ask: What EC50 value was documented for this compound, CS(=O)(=O)c1cccc(-c2noc(-c3nnn(-c4ccccc4F)c3-c3ccncc3)n2)c1 [Example 52] ?
Result: > 20 µM

Ask: Lookup O=C(O)c1ccc(-c2noc(-c3nnn(-c4ccccc4F)c3-c3ccccc3)n2)c(F)c1 [Example 33]
Result: > 20 µM

Ask: Lookup Cc1ccccc1-c1noc(-c2nnn(-c3ccccc3F)c2-c2ccncc2)n1 [Example 121]
Result: > 20 µM

Ask: Lookup Fc1ccccc1-c1noc(-c2nnn(-c3ccccc3F)c2C2CCOCC2)n1 [Example 59]
Result: > 20 µM

Ask: Lookup COCc1c(-c2nc(-c3cc(F)ccc3F)no2)nnn1-c1ccccc1F [Example 10]
Result: > 30 µM

Ask: Lookup Fc1ccc(F)c(-c2noc(-c3nnn(-c4ccccc4F)c3CN3CCCC3)n2)c1 [Example 92]
Result: > 20 µM

Ask: Lookup Fc1ccccc1-n1nnc(-c2nc(-c3cccc(Cn4cncn4)c3)no2)c1-c1ccncc1 [Example 61]
Result: > 20 µM

* * *

Examples of compounds with documented pEC50 follow.
- TESTED_SYSTEM: S1P3 receptor (Homo sapiens, UniProt Q99500)
- PROCEDURE_TEXT: 35S-GTPγS binding, membranes from CHO cells expressing S1P3
- MEASUREMENT_SETUP: CHO cell membranes expressing S1P3
pEC50: −log10 of the molar value.

INSERT INTO assay_data (substance_smiles, result) VALUES
  ('Fc1ccccc1-n1nnc(-c2nc(-c3ccncc3)no2)c1-c1ccncc1', '< 4.70');

Ask: What pEC50 value was documented for this compound, Fc1ccccc1-c1noc(-c2nnn(-c3ccccc3F)c2-c2cccnc2)n1 ?
Result: < 4.70

Ask: Lookup Fc1ccccc1-n1nnc(-c2nc(-c3cccc(C(F)(F)F)c3)no2)c1-c1ccccc1
Result: < 4.52
